Test: Example 1 single-dose plasma pharmacokinetics after intranasal administration
Assay type: in vivo, human
Conditions: female, human, plasma, inhaled or intranasal, 160 mg, Female healthy subjects; single intranasal 160 mg cocaine HCl; plasma; read-out: AUClast (Mean)
Observable: AUC(0-t)

molecule="COC(=O)[C@H]1[C@@H](OC(=O)c2ccccc2)C[C@@H]2CC[C@H]1N2C [Cocaine, cocaine, reference compound]" observable=AUC(0-t) recorded_value="0.0444 µg·h/mL"

----------
Test: Example 2 plasma pharmacokinetics, normal renal function vs severe renal impairment
Settings: both, human, plasma, inhaled or intranasal, 160 mg, Tmax (Mean), severe renal impairment; single intranasal 160 mg cocaine HCl
Observable: Tmax

molecule="COC(=O)[C@H]1[C@@H](OC(=O)c2ccccc2)C[C@@H]2CC[C@H]1N2C [Cocaine, cocaine, reference compound]" recorded_value="26.9 min"

----------
Test: Example 1 single-dose plasma pharmacokinetics after intranasal administration
Format: in vivo, human
Conditions: female, human, plasma, inhaled or intranasal, 160 mg, Female healthy subjects; single intranasal 160 mg cocaine HCl; plasma; read-out: AUClast (Geometric mean)
Observable: AUC(0-t) (ng·h/mL)

molecule="COC(=O)[C@H]1[C@@H](OC(=O)c2ccccc2)C[C@@H]2CC[C@H]1N2C [Cocaine, cocaine, reference compound]" observable=AUC(0-t) recorded_value=39.4

----------
Test: Example 3 plasma pharmacokinetics, normal hepatic function vs hepatic impairment
Settings: both, human, plasma, inhaled or intranasal, 160 mg, Tmax (Mean), hepatic impairment; single intranasal 160 mg cocaine HCl
Observable: Tmax (h)

compound="COC(=O)[C@H]1[C@@H](OC(=O)c2ccccc2)C[C@@H]2CC[C@H]1N2C [Cocaine, cocaine, reference compound]" observable=Tmax recorded_value=1.09

----------
Experiment: Example 1 single-dose plasma pharmacokinetics after intranasal administration
Type: in vivo, human
Conditions: both sexes, human, plasma, inhaled or intranasal, 160 mg, healthy subjects; single intranasal 160 mg cocaine HCl; plasma; read-out: Cmax (Geometric Mean)
Observable: Cmax (ng/mL)

molecule="COC(=O)[C@H]1[C@@H](OC(=O)c2ccccc2)C[C@@H]2CC[C@H]1N2C [Cocaine, cocaine, reference compound]" observable=Cmax recorded_value=32.8

----------
Experiment: Example 1 single-dose plasma pharmacokinetics after intranasal administration
Format: in vivo, human
Conditions: both sexes, human, plasma, inhaled or intranasal, 160 mg, healthy subjects; single intranasal 160 mg cocaine HCl; plasma; read-out: AUCinf (Geometric Mean)
Observable: AUC(0-inf) (ng·h/mL)

compound="COC(=O)[C@H]1[C@@H](OC(=O)c2ccccc2)C[C@@H]2CC[C@H]1N2C [Cocaine, cocaine, reference compound]" observable=AUC(0-inf) measurement_units=ng·h/mL recorded_value=50.3

----------
Test: Example 3 plasma pharmacokinetics, normal hepatic function vs hepatic impairment
Conditions: both, human, plasma, other: intranasal (drug-soaked pledgets in the nasal cavity), 160 mg, AUClast (Geometric Least Squares Mean, ANOVA), Normal hepatic function
Observable: AUC(0-t) (ng·h/mL)

compound="COC(=O)[C@H]1[C@@H](OC(=O)c2ccccc2)C[C@@H]2CC[C@H]1N2C [Cocaine, cocaine, reference compound]" observable=AUC(0-t) recorded_value=79.2

----------
Assay: Example 1 single-dose plasma pharmacokinetics after intranasal administration
Format: in vivo, human
Conditions: female, human, plasma, inhaled or intranasal, 160 mg, Female healthy subjects; single intranasal 160 mg cocaine HCl; plasma; read-out: t1/2 (Mean) (converted)
Observable: half-life (h)

molecule="COC(=O)[C@H]1[C@@H](OC(=O)c2ccccc2)C[C@@H]2CC[C@H]1N2C [Cocaine, cocaine, reference compound]" measurement_units=h recorded_value=1.01

The measurements presented in this section are drawn from patent US10413505B1.
